molecular target: T1, human chemokine receptor type 4 (CXCR4) (human, UniProt P61073 1-352); assay: radioligand binding on Jurkat and CMS5/CXCR4 cells
T1 construct: whole, on cells; also called CXCR4 receptor; CXCR4 chemokine receptor
T1 sequence (P61073 whole entry): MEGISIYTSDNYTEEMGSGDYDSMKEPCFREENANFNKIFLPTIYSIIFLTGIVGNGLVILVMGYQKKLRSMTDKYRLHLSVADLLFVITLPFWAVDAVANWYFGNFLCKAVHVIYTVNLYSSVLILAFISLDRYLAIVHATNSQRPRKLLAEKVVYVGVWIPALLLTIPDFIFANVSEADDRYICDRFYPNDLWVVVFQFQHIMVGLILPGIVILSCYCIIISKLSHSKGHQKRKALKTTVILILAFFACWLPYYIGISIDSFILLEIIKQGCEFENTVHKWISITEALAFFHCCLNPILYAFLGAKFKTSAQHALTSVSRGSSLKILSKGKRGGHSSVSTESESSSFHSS
Square brackets hold non-standard residues; d marks the D form. * marks the point of attachment. 2Nal = N[C@@H](Cc1ccc2ccccc2c1)C(=O)O; 125I = [125I]*
metric name: pKd
The value called pKd is obtained by taking minus log10 of the concentration in mol/L.

Would you kindly share the measured pKd for cyclo([dY](125I)RR[2Nal]G) (also called radiolabeled CPCR4) [125I-CPCR4] ?
9.40
